- procedureSummary: Stability test in pH solutions (Test Example 2), related substances by HPLC
- Assay type: physicochemical
- experimentalConditions: pH 1.2; read-out: amount of related substances generated
measuredQuantity: degraded

Given CN1CCc2nc(C(=O)N[C@@H]3C[C@@H](C(=O)N(C)C)CC[C@@H]3NC(=O)C(=O)Nc3ccc(Cl)cn3)sc2C1 , state its recorded degraded.
19.3%

###

- procedureSummary: Stability test in pH solutions (Test Example 2), related substances by HPLC
- Format: physicochemical
- experimentalConditions: distilled water (DW); read-out: amount of related substances generated
measuredQuantity: degraded (%)
Express it in %; write the number only.

Given CN1CCc2nc(C(=O)N[C@@H]3C[C@@H](C(=O)N(C)C)CC[C@@H]3NC(=O)C(=O)Nc3ccc(Cl)cn3)sc2C1 , state its recorded degraded.
0.18

Numbers sourced from patent KR20210050472A.
